Target: RARγ (Homo sapiens, UniProt P13631)
Construct: % Efficiency γ; other: percentage of maximum compared to standard TTNPB
Sequence (P13631 185-454 limits assumed): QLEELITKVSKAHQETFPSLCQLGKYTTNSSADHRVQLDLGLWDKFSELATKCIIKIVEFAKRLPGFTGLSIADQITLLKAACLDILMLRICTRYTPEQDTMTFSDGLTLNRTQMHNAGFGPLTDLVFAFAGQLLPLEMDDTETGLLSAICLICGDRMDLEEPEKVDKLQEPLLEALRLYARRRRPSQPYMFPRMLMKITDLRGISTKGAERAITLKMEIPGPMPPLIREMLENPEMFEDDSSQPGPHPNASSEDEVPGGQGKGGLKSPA
Assay: chimeric receptor transactivation assay, RARγ
Type: cell-based
Conditions: percentage of maximum compared to standard TTNPB
recorded metric: % Efficiency γ (%)

a. CC1(C)CCCc2ccc(C(/C=C/c3ccc(C(=O)O)cc3F)=N\O)cc21
b. CC1(C)CCC(C)(C)c2cc(C(C=Cc3ccc(C(=O)O)cc3F)=NO)ccc21 [drawing 10]
Query :: Between a and b , whose measured % Efficiency γ reads higher? Identify your selection by its label.
Result :: a
(a: 123%, b: 84%)

----------
Molecular target: UniProtKB P10276
Sequence (P10276 1-462): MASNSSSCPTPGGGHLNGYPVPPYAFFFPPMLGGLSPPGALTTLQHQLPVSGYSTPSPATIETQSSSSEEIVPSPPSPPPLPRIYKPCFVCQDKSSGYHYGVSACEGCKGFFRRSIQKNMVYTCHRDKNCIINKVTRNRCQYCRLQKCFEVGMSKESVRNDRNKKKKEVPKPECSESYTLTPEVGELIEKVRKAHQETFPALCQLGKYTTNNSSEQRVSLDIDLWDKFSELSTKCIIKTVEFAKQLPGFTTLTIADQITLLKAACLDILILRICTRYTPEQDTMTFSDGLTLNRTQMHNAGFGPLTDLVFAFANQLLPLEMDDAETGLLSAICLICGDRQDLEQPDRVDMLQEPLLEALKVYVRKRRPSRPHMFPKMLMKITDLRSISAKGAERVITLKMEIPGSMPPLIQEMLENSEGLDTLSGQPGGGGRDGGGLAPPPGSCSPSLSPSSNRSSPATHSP
pKi: −log10 of the molar value.
recorded metric: pKi

- molecule: "CC1(C)CCCc2ccc(C(C=Cc3ccc(C(=O)O)cc3)=NO)cc21 [drawing 12]"
  recorded metric: "pKi"
  assay value: 5.22
- molecule: "CC1(C)CC(C)(C)c2cc(C(C=Cc3ccc(C(=O)O)cc3)=NO)ccc21 [drawing 30]"
  recorded metric: "pKi"
  assay value: 5.15
- molecule: "COc1cc2c(cc1C(/C=C/c1ccc(C(=O)O)cc1)=N\\O)C(C)(C)CCC2(C)C"
  recorded metric: "pKi"
  assay value: 5.00
- molecule: "Cc1cc2c(cc1C(C=Cc1ccc(C(=O)O)cc1)=NO)C(C)(C)CCC2(C)C [drawing 36]"
  recorded metric: "pKi"
  assay value: 5.10

Where do the numbers come from? From patent US7476673B2.
